TEST SYSTEM: 15-hydroxyprostaglandin dehydrogenase [NAD(+)] (Homo sapiens) (UniProt P15428)
Sequence (P15428 whole entry, looked up): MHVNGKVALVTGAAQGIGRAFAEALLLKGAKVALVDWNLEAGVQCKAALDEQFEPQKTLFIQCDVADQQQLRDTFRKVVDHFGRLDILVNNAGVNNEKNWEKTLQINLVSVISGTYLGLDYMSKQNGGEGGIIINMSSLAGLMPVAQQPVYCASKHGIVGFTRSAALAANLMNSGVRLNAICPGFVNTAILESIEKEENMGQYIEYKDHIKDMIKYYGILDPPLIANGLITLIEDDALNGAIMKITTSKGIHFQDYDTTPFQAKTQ
ASSAY DETAILS: qHTS Assay for Inhibitors of HPGD (15-Hydroxyprostaglandin Dehydrogenase); further: on the % scale 0 is the no-effect control and ±100 the full control effect
MEASUREMENT CONTEXT: purified HPGD, NADH fluorescence kinetic, PGE2 substrate; stronger effect = lower value
The whole screen tested about 150,000 compounds, of which about 6,500 (4.3%) were called active. About 12% were inconclusive and are not listed. Shown is part of a subset that was picked to be rich in actives.
# label = Fulfilled if activity change, negative = inhibition < -10% else Not fulfilled

Ask: API: query returns whether the molecule falls strictly under -10% in activity change, negative = inhibition. Query: CCCCN1C(=O)CCC(C(=O)O)C1c1ccc(OC)cc1 (stereo unspecified)
Result: Not fulfilled

Ask: API: query returns whether the molecule falls strictly under -10% in activity change, negative = inhibition. Query: COC(=O)c1ccccc1NS(=O)(=O)c1ccc2[nH]c(=O)[nH]c2c1
Result: Fulfilled

Ask: API: query returns whether the molecule falls strictly under -10% in activity change, negative = inhibition. Query: O=C(CCOc1ccccc1)NCc1ccccc1
Result: Fulfilled

Ask: API: query returns whether the molecule falls strictly under -10% in activity change, negative = inhibition. Query: O=C(Nc1ccccc1)Nc1ccccc1C(=O)NCc1ccco1
Result: Not fulfilled

Ask: API: query returns whether the molecule falls strictly under -10% in activity change, negative = inhibition. Query: COc1ccc(/C=N/NC(=O)c2ccccc2)cc1OS(=O)(=O)c1ccccc1
Result: Fulfilled

Ask: API: query returns whether the molecule falls strictly under -10% in activity change, negative = inhibition. Query: CN(C)/N=C/c1cc(Cl)cc([N+](=O)[O-])c1O
Result: Fulfilled

Ask: API: query returns whether the molecule falls strictly under -10% in activity change, negative = inhibition. Query: CCCCOc1ccc(C(=O)NCC(=O)OCC(=O)N2CCN(S(=O)(=O)c3ccc(C)cc3C)CC2)cc1
Result: Not fulfilled

Ask: API: query returns whether the molecule falls strictly under -10% in activity change, negative = inhibition. Query: OCCNCCOc1ccc(Cl)c(Cl)c1
Result: Not fulfilled

Ask: API: query returns whether the molecule falls strictly under -10% in activity change, negative = inhibition. Query: CCCN(CC1COc2ccccc2O1)C(=S)Nc1ccc(C)cc1 (stereo unspecified)
Result: Not fulfilled

Ask: API: query returns whether the molecule falls strictly under -10% in activity change, negative = inhibition. Query: CCOC(=O)C1CCN(c2ccc(C(=O)O)cc2[N+](=O)[O-])CC1
Result: Not fulfilled

Ask: API: query returns whether the molecule falls strictly under -10% in activity change, negative = inhibition. Query: COC(=O)Cc1ccc(N(Cc2ccccc2F)S(=O)(=O)c2ccc(Br)cc2)cc1
Result: Fulfilled

---

TEST SYSTEM: 15-hydroxyprostaglandin dehydrogenase [NAD(+)] (Homo sapiens) (UniProt P15428)
ASSAY DETAILS: qHTS Assay for Inhibitors of HPGD (15-Hydroxyprostaglandin Dehydrogenase); further: on the % scale 0 is the no-effect control and ±100 the full control effect
MEASUREMENT CONTEXT: purified HPGD, NADH fluorescence kinetic, PGE2 substrate; stronger effect = lower value
Among all 150,000 compounds or so, about 6,500 (4.3%) were called active. Roughly 12% stayed inconclusive and do not appear here. The sample holds actives, similar compounds and a random draw of the others, so the mix is not that of the screen.
Please go through the items and note down their activity change, negative = inhibition.
API: value field is a number in %; no unit string.

For this compound ( O=C(N/N=C/c1ccc2c(c1)OCO2)c1ccc(Cn2cc([N+](=O)[O-])cn2)o1 ), measured activity change, negative = inhibition is -8.13

For this compound ( COc1cccc(CC(=O)N2CCc3nc(COc4ccccc4)c4c(c3C2)CO[C@@H](C)C4)c1 ), measured activity change, negative = inhibition is -2.54

For this compound ( NS(=O)(=O)c1ccc(N=Cc2ccc(Br)s2)cc1 ), measured activity change, negative = inhibition is -0.454

For this compound ( Cc1ccc(C(=O)c2c(NC(=O)c3ccncc3)sc3c2CCCC3)cc1 ), measured activity change, negative = inhibition is -22.2

For this compound ( N#C/C(C(=O)N1CCOCC1)=C1/SC(Cc2ccc(F)cc2)C(=O)N1c1ccccc1 (stereo not drawn) ), measured activity change, negative = inhibition is -13.3

For this compound ( COc1ccc(O)c(C(=O)c2cnc3onc(C(C)C)c3c2)c1 ), measured activity change, negative = inhibition is -14.6

For this compound ( CC1(C)CCc2nc(SCc3ccccc3)c(C#N)cc2C1 ), measured activity change, negative = inhibition is -11

For this compound ( O=S(=O)(NCc1ccccn1)c1ccc(F)cc1 ), measured activity change, negative = inhibition is -6.74

For this compound ( Cn1c(CNC(=O)c2ccccc2F)nnc1SCc1ccc(F)cc1 ), measured activity change, negative = inhibition is -8.88

For this compound ( Cc1cc(Cl)ccc1NC(=S)NCCCN1CCCC1=O ), measured activity change, negative = inhibition is -1.25

For this compound ( Cc1cc(C(C)(C)C)cc(C)c1N ), measured activity change, negative = inhibition is 2.4

For this compound ( N#CC1=C(SCc2ccc(C#N)cc2)N=C(N)C(c2nc(-c3ccccc3)cs2)C12CCCCC2 (stereo not drawn) ), measured activity change, negative = inhibition is -15.3

For this compound ( S=C1Nc2cc(Cl)ccc2Sc2ccccc21 ), measured activity change, negative = inhibition is -14

For this compound ( Cc1ccc(S(=O)(=O)Nc2ccc3ncccc3c2)cc1 ), measured activity change, negative = inhibition is -6.64

For this compound ( COc1ccc2c(c1)O[C@@H](c1ccc3c(c1)OCO3)[C@H](OC(=O)NCc1ccco1)C2=O ), measured activity change, negative = inhibition is -11.6

For this compound ( Oc1ccc(Br)cc1C=Nc1ccc2[nH]ncc2c1 ), measured activity change, negative = inhibition is -20.6

For this compound ( Cc1cc(C)n(CC(O)CN(c2ccccc2)S(=O)(=O)c2ccc3ccccc3c2)n1 (stereo not drawn) ), measured activity change, negative = inhibition is -6.52

For this compound ( CC(=O)c1c(Nc2ccccc2)sc(C(=O)c2ccccc2)c1C ), measured activity change, negative = inhibition is -1.98

For this compound ( C=CCOc1ccc(/C=N/n2cncn2)cc1OC ), measured activity change, negative = inhibition is -24.2

For this compound ( COc1cc(/C=N/O)ccc1OCc1ccc([N+](=O)[O-])cc1 ), measured activity change, negative = inhibition is -3.26

For this compound ( Cc1cc(C(F)(F)F)n2ncc(-c3ccccc3)c2n1 ), measured activity change, negative = inhibition is -0.556

For this compound ( CC(C)=C1C2CCC1C1C(=O)N(NC(=O)c3ccco3)C(=O)C21 (stereo not drawn) ), measured activity change, negative = inhibition is -7.1

For this compound ( NS(=O)(=O)c1ccc(CCNC(=O)Nc2ccc(Cl)cc2)cc1 ), measured activity change, negative = inhibition is -8.27

---

Please go through the items and note down their activity change, negative = inhibition.
TEST SYSTEM: 15-hydroxyprostaglandin dehydrogenase [NAD(+)] (Homo sapiens)
ASSAY DETAILS: qHTS Assay for Inhibitors of HPGD (15-Hydroxyprostaglandin Dehydrogenase); further: on the % scale 0 is the no-effect control and ±100 the full control effect
MEASUREMENT CONTEXT: purified HPGD, NADH fluorescence kinetic, PGE2 substrate; stronger effect = lower value
Text: Human 15-Hydroxyprostaglandin dehydrogenase (HPGD) catalyzes the inactivation of prostaglandin E2, and plays a major role in cancer biology by antagonizing the oncogenic potential of cyclooxygenase type 2 (COX2). Assays are available, based on absorbance/fluorescence increase of NADH with the substrate 15-OH prostaglandin E2. References 1. […] An increase in the fluorescence intensity due to conversion of NAD+ to NADH was used to measure the enzyme activity. […]
About 6,500 (4.3%) of roughly 150,000 compounds were called active. About 12% were inconclusive and are not listed. For the sample, actives were picked, then their nearest neighbours and some compounds at random.
API: value field is a number in %; no unit string.

For this compound ( C/C(=N/NC(=O)CSc1ccccn1)c1ccc([N+](=O)[O-])cc1 ), measured activity change, negative = inhibition is -12.7

For this compound ( Cc1cc([N+](=O)[O-])c(-c2ccc(/C=N/n3cnnc3)o2)cc1Cl ), measured activity change, negative = inhibition is -28.3

For this compound ( Cc1ccsc1/C=N/n1c(=S)[nH]nc(C)c1=O ), measured activity change, negative = inhibition is -6.69

For this compound ( CCC(C)NC(=O)c1ccccc1NC(=O)c1ccccc1N(C)S(C)(=O)=O (centres undefined) ), measured activity change, negative = inhibition is 1.34

For this compound ( Cc1nc2ccccc2nc(C)c1=NOCc1ccc(Cl)cc1Cl ), measured activity change, negative = inhibition is -8.26

For this compound ( COc1ccc(NC(=O)c2nc(-n3nc(C)cc3C)ccc2Cl)cc1Cl ), measured activity change, negative = inhibition is -17.4

For this compound ( CCc1ccc(C2C(C#N)=C(N)N(N(C)C)C3=C2C(=O)CCC3)s1 (centres undefined) ), measured activity change, negative = inhibition is -10.8

For this compound ( CCOC(=O)c1c(/N=C/C2C(=O)CC(C)(C)CC2=O)sc(C)c1C ), measured activity change, negative = inhibition is -11.6

For this compound ( Cc1cc(C)cc(OCC(=O)NNC(=O)CCN2C(=O)c3ccccc3C2=O)c1 ), measured activity change, negative = inhibition is -12.4

For this compound ( CCCc1[nH]nc2c1C(C1CC=CCC1)C(C#N)=C(N)O2 (centres undefined) ), measured activity change, negative = inhibition is -1.94

For this compound ( Cn1cc(/C=C/c2nc3ccccc3c(=O)n2-c2cccc([N+](=O)[O-])c2)c2ccccc21 ), measured activity change, negative = inhibition is -11.6

For this compound ( CCOC(=O)c1sc(NC(=O)CSc2ncccn2)c(C#N)c1C ), measured activity change, negative = inhibition is -17.5

For this compound ( CCCCOc1ccc(C(=O)N/C(=C/C=C/c2ccccc2)C(=O)N2CCOCC2)cc1 ), measured activity change, negative = inhibition is -16

For this compound ( CC1(OC(=O)c2ccc(Cl)nc2)C(=O)Cc2cc(-c3ccsc3)ncc2C1=O (centres undefined) ), measured activity change, negative = inhibition is 2.16

For this compound ( CC(=O)c1c(N2CCN(c3ccc(F)cc3)CC2)nc(=S)n(-c2ccccc2)c1C ), measured activity change, negative = inhibition is -7.92

For this compound ( COc1ccc(-c2nc3c(c4c2C[C@H](c2ccccc2)OC4)CN(C(=O)c2cccnc2)CC3)c(C)c1 ), measured activity change, negative = inhibition is -9.44

For this compound ( COc1ccc(Cc2nnc(N/N=C/c3ccccc3O)[nH]c2=O)cc1OC ), measured activity change, negative = inhibition is -16.1

For this compound ( O=C(CSc1ncnc2scc(-c3ccccc3)c12)NCc1ccc2c(c1)OCO2 ), measured activity change, negative = inhibition is -13.5

For this compound ( Cn1c(SCC(=O)NC2CCCCC2)nnc1-c1cc2ccccc2o1 ), measured activity change, negative = inhibition is -3.43

For this compound ( Fc1ccc2nc(N3CCCCC3)sc2c1 ), measured activity change, negative = inhibition is -12.2

For this compound ( Fc1cc(F)c2nc(N3CCOCC3)sc2c1 ), measured activity change, negative = inhibition is -12.5

For this compound ( CCC(C)(C)C1CCC(=NNC(=O)c2ccc(Br)o2)CC1 (centres undefined) ), measured activity change, negative = inhibition is -9.21

For this compound ( CCOC(=O)Cc1csc(SCC(=O)NC(C)C23CC4CC(CC(C4)C2)C3)n1 (centres undefined) ), measured activity change, negative = inhibition is -15.9

For this compound ( Cc1ccc(NC(=S)NC(=O)/C=C/c2ccc(Cl)cc2)cc1 ), measured activity change, negative = inhibition is -18.9

For this compound ( COc1ccc(S(=O)(=O)Nc2ccc3oc(C)c(C(C)=O)c3c2)cc1 ), measured activity change, negative = inhibition is -11.3

For this compound ( CC1CN(S(=O)(=O)c2ccc(C(=O)NN3CCN(C)CC3)cc2)CC(C)O1 (centres undefined) ), measured activity change, negative = inhibition is -9.75

For this compound ( Cc1[nH]c2ccccc2c1/C=N\NC(=O)Cn1nnc(-c2ccccc2)n1 ), measured activity change, negative = inhibition is -7.96

For this compound ( COc1ccc(-c2oc3cc(OC)ccc3c2C(=O)c2ccc(C#N)cc2)cc1 ), measured activity change, negative = inhibition is -8.41

For this compound ( O=C(CSc1nc(-c2ccco2)cc(C(F)(F)F)n1)NCc1cccs1 ), measured activity change, negative = inhibition is -3.58

For this compound ( c1ccc(-c2noc(-c3cccs3)n2)nc1 ), measured activity change, negative = inhibition is -8.74

For this compound ( O=C(Nc1ccccc1C(=O)NCCCn1ccnc1)c1ccc(Cl)cc1Cl ), measured activity change, negative = inhibition is -7.71

For this compound ( CCOC(=O)c1sc(NC(=O)CSc2nnc(-c3ccco3)o2)c(C(=O)OCC)c1C ), measured activity change, negative = inhibition is -18.6

For this compound ( COCCNC(=S)N/N=C/c1c(C)[nH]c2ccccc12 ), measured activity change, negative = inhibition is -19.3

For this compound ( CC(C)(C)CC(C)(C)NCC(O)COCCOc1ccc(Br)cc1 (centres undefined) ), measured activity change, negative = inhibition is -5.61

For this compound ( O=[N+]([O-])c1cc(S(=O)(=O)N2CCCC2)ccc1NN=C1CCCC1 ), measured activity change, negative = inhibition is -4.68

For this compound ( CCN1C(=O)/C(=C\N2CCN(c3ccccc3)CC2)SC1=S ), measured activity change, negative = inhibition is -18.6

For this compound ( FC(F)(F)c1cc(-c2ccco2)nc(N2CCOCC2)n1 ), measured activity change, negative = inhibition is -8.04

For this compound ( CCc1nnc(NC(=O)C2CC(=O)N(c3ccc4c(c3)OCCO4)C2)s1 (centres undefined) ), measured activity change, negative = inhibition is -28.3

For this compound ( O=C(Nn1c(SCc2ccc([N+](=O)[O-])cc2)nc2ccccc2c1=O)c1ccc(F)cc1 ), measured activity change, negative = inhibition is -26.2

For this compound ( O=S(=O)(NCC1CCCO1)c1cnc(Cl)c(Cl)c1 (centres undefined) ), measured activity change, negative = inhibition is -16.1

For this compound ( Cc1ccc(NC(=S)NCc2ccccc2Cl)c(C)c1 ), measured activity change, negative = inhibition is -27.2

For this compound ( Cc1nnc(OCC(=O)NCCC2=CCCCC2)c2ccccc12 ), measured activity change, negative = inhibition is -17.6

For this compound ( CCCC/S(C)=N/S(=O)(=O)c1ccc(C)cc1 (centres undefined) ), measured activity change, negative = inhibition is 1.3

For this compound ( CN(C)S(=O)(=O)c1cc(NC(=O)CN2C(=O)NC3(CCCc4ccccc43)C2=O)ccc1Cl (centres undefined) ), measured activity change, negative = inhibition is -12.7
